Biological target: Acetylcholinesterase (Bos taurus)
Sequence (P23795 whole entry): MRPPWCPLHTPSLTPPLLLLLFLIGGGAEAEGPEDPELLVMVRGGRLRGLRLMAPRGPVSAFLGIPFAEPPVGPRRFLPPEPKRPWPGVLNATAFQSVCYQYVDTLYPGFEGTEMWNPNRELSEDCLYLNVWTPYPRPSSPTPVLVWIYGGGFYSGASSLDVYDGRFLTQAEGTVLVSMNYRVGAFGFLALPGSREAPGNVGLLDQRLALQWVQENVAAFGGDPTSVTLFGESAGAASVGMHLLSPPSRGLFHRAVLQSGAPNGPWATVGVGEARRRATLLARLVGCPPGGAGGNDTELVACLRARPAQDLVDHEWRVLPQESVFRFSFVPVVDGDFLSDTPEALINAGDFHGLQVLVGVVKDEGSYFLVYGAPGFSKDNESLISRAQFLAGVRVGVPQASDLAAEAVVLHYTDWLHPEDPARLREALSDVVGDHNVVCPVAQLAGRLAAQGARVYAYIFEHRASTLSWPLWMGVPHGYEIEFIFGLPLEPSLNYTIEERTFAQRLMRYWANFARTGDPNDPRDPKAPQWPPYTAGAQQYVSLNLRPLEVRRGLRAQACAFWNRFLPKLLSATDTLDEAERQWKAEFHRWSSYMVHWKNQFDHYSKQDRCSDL
reported-metric: IC50 (nM)
Answer format: numeric, nM implied, no suffix.

Form field: reported IC50 of CCC1=CC2CC(C1)Cc1nc3ccccc3c(N)c12 (racemic)
165

* * *

Molecular target: Acetylcholinesterase (Homo sapiens)
Sequence (P22303 whole entry): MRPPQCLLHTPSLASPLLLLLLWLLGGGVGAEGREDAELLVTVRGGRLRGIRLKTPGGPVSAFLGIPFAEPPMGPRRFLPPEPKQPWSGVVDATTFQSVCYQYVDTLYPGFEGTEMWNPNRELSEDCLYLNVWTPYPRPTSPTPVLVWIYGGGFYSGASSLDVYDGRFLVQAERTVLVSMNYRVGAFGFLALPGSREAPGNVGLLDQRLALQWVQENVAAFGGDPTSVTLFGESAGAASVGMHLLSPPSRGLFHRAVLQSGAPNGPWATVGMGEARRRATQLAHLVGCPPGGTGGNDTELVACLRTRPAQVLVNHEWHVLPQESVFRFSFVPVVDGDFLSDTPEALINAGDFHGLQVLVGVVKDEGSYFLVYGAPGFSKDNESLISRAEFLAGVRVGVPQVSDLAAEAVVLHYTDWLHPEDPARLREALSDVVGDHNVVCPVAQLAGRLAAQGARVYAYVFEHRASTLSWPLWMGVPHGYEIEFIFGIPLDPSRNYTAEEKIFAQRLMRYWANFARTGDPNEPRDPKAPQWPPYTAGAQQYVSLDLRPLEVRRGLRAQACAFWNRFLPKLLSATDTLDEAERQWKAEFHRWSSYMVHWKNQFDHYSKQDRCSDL
reported-metric: pIC50
pIC50 (log units): -log10 of the concentration in mol/L.

Form field: reported pIC50 of CC1=CC2Cc3nc4ccccc4c(N)c3C(C1)C2 (racemic)
7.29

Same lookup for CC1=CC2CC(C1)Cc1nc3ccccc3c(N)c12 (racemic) , please.
6.36

Same lookup for CCC1=CC2CC(C1)Cc1nc3ccccc3c(N)c12 (racemic) , please.
7.11

Same lookup for CCC1=CC2Cc3nc4ccccc4c(N)c3C(C1)C2 (racemic) , please.
7.42
